Target: human IL-6 (human, UniProt P05231 30-212)
Sequence (P05231 30-212 limits assumed): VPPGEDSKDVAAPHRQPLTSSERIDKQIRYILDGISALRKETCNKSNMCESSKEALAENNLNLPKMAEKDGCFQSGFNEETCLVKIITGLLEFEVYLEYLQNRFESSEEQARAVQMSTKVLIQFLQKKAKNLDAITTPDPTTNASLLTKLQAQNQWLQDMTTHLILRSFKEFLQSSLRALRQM
Test: SPR (Biacore), supernatant antibody on Protein A chip, IL-6 flowed, 37 C
OBSERVATION_TYPE: koff (s⁻¹)
Provide the reading as a plain figure in s⁻¹.

Ask: Specify koff for anti-IL-6 antibody, heavy chain I51F, G66D / light chain M32L, M50D, N52S, M88Q (antibody, human IgG1, V domains shown, Human IgG1) VH: EVQLVESGGGLVQPGGSLRLSCAASGFTFSPFAMSWVRQAPGKGLEWVAKFSPGGSWTYYSDTVTDRFTFSLDTSKSTAYLQMNSLRAEDTAVYYCARQLWGYYALDIWGQGTLVTVSS VL: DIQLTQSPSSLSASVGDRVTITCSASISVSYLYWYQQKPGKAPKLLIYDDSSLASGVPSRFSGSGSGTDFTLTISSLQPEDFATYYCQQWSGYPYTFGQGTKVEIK and stop.
Reply: 0.00611

Ask: Specify koff for anti-IL-6 antibody, heavy chain T65S, G66D / light chain M32L, M50D, N52S, M88Q (antibody, human IgG1, V domains shown, Human IgG1) VH: EVQLVESGGGLVQPGGSLRLSCAASGFTFSPFAMSWVRQAPGKGLEWVAKISPGGSWTYYSDTVSDRFTFSLDTSKSTAYLQMNSLRAEDTAVYYCARQLWGYYALDIWGQGTLVTVSS VL: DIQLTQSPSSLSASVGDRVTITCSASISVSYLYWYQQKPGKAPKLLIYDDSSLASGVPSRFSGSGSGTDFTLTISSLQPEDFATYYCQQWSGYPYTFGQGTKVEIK and stop.
Reply: 0.000441

Ask: Specify koff for anti-IL-6 antibody, heavy chain T65W, G66D / light chain M32L, M50D, N52S, M88Q (antibody, human IgG1, V domains shown, Human IgG1) VH: EVQLVESGGGLVQPGGSLRLSCAASGFTFSPFAMSWVRQAPGKGLEWVAKISPGGSWTYYSDTVWDRFTFSLDTSKSTAYLQMNSLRAEDTAVYYCARQLWGYYALDIWGQGTLVTVSS VL: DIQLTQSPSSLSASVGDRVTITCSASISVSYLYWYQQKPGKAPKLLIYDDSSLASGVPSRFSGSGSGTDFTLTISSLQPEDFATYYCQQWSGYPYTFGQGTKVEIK and stop.
Reply: 0.000384
